# Tested on: 941728-121-R-J1-PDC complex spheroid viability;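 note: spheroids exposed to compounds for 7 days before readout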
# method: Anticancer human tumor 941728-121-R-J1-PDC patient-derived lung adenocarcinoma cell line growth inhibition [RAS]
# measurement_conditions: curve of first compound; second compound 0.316 µM
measure_name: IC50

Answered cases to consult:
{"compound": "Nc1ccn(C2OC(CO)C(O)C2(F)F)c(=O)n1 (stereo not given) + C=CC(=O)N1CCN(c2nc(OCC3CCCN3C)nc3c(F)c(-c4nc(N)cc(C)c4C(F)(F)F)c(Cl)cc23)C(C)C1", "measure_name": "IC50", "endpoint_result": "< 3.16 nM"}
{"compound": "CC(C)n1nc(-c2ccc3oc(N)nc3c2)c2c(N)ncnc21 + C#Cc1c(F)ccc2cc(O)cc(-c3ncc4c(N5CC6CCC(C5)N6)nc(OCC56CCCN5CC(F)C6)nc4c3F)c12", "measure_name": "IC50", "endpoint_result": "1.26 nM"}
{"compound": "CC(C)NCC(C(=O)N1CCN(c2ncnc3c2C(C)CC3O)CC1)c1ccc(Cl)cc1 (stereo not given) + C=CC(=O)N1CCN(c2nc(OCC3CCCN3C)nc3c(F)c(-c4nc(N)cc(C)c4C(F)(F)F)c(Cl)cc23)C(C)C1", "measure_name": "IC50", "endpoint_result": "< 31.6 nM"}
{"compound": "CCc1c2c(nc3ccc(O)cc13)-c1cc3c(c(=O)n1C2)COC(=O)[C@]3(O)CC + C=CC(=O)N1CCN(c2nc(OCC3CCCN3C)nc3c(F)c(-c4nc(N)cc(C)c4C(F)(F)F)c(Cl)cc23)C(C)C1", "measure_name": "IC50", "endpoint_result": "< 0.949 nM"}

Okay, now this compound:
Name the reported IC50 value associated with the compound CC(C)n1nc(-c2ccc3oc(N)nc3c2)c2c(N)ncnc21 + C=CC(=O)N1CCN(c2nc(OCC3CCCN3C)nc3c(F)c(-c4nc(N)cc(C)c4C(F)(F)F)c(Cl)cc23)C(C)C1
< 0.316 nM
